test system: HEK293Swe cells; assay: HEK293Swe Whole Cell Assay (Abeta ELISA); format: cell-based; conditions: Homo sapiens, HEK293, Abeta 1-40 in conditioned media, read-out: HEK 293 Swe A-beta (1-40) ELISA IC50
Structures can show the parent of a compound that is named as a salt.
As shown below, each of these compounds has a reported IC50 value.

# COMPOUND, IC50, nM
records = [
    ("Cl.NC1=N[C@@]2(c3cccc(NC(=O)c4ccc(F)cn4)c3)CN(c3ncc(F)cn3)C[C@H]2CS1 [Example 1, hydrochloride]", 0.619),
    ("N#Cc1ccc(C(=O)Nc2cccc([C@]34CN(c5ncc(F)cn5)C[C@H]3CSC(N)=N4)c2)nc1 [Example 5, hydrochloride]", 0.0887),
    ("NC1=N[C@@]2(c3cccc(NC(=O)c4ncc(F)cc4F)c3)CN(c3ncc(F)cn3)C[C@H]2CS1 [Example 6, hydrochloride]", 0.22),
    ("Cl.NC1=N[C@@]2(c3cc(NC(=O)c4ccc(F)cn4)ccc3F)CN(c3ncc(F)cn3)C[C@H]2CS1 [Example 3, hydrochloride]", 1.26),
    ("COc1cnc(C(=O)Nc2cccc([C@]34CN(c5ncc(F)cn5)C[C@H]3CSC(N)=N4)c2)cn1 [Example 2, hydrochloride]", 0.324),
]
